Test system: MCF-7 (Human mammary gland adenocarcinoma)
Test: Cytotoxicity testing (MTS) on MCF-7
Type: cell-based
Returns: string. Value is y if measured logIC50 is below -7 log10 M, and n if it is greater than or equal to it.

compound | subject.of.test | class.assignment
COc1cc2c(c(OC(C)=O)c1OC)-c1ccc(OC)c(=O)cc1[C@@H](NC(C)=O)CC2 [Compound 2] | MCF-7 (Human mammary gland adenocarcinoma) | n
C=CCOc1cc2c(c(OC)c1OC)-c1ccc(SC)c(=O)cc1[C@@H](NC(C)=O)CC2 [Compound 41] | MCF-7 (Human mammary gland adenocarcinoma) | y
COc1cc2c(c(OCc3ccccc3)c1OC)-c1ccc(OC)c(=O)cc1[C@@H](NC(C)=O)CC2 [Compound 10] | MCF-7 (Human mammary gland adenocarcinoma) | n
COc1cc2c(c(O)c1OC)-c1ccc(OC)c(=O)cc1[C@@H](NC(C)=O)CC2 [Compound 3] | MCF-7 (Human mammary gland adenocarcinoma) | n
COc1cc2c(c(OC(C)C)c1OC)-c1ccc(OC)c(=O)cc1[C@@H](NC(C)=O)CC2 [Compound 7] | MCF-7 (Human mammary gland adenocarcinoma) | y
CCOc1c(OC)c(OC)cc2c1-c1ccc(OC)c(=O)cc1[C@@H](NC(C)=O)CC2 [Compound 6] | MCF-7 (Human mammary gland adenocarcinoma) | y
COc1cc2c(c(OCc3ccc(Cl)cc3)c1OC)-c1ccc(OC)c(=O)cc1[C@@H](NC(C)=O)CC2 [Compound 15] | MCF-7 (Human mammary gland adenocarcinoma) | n
COc1cc2c(c(-c3cccnc3)c1OC)-c1ccc(OC)c(=O)cc1[C@@H](NC(C)=O)CC2 [Compound 13] | MCF-7 (Human mammary gland adenocarcinoma) | n
CCOc1cc2c(c(OC)c1OC)-c1ccc(SC)c(=O)cc1[C@@H](NC(C)=O)CC2 [Compound 42] | MCF-7 (Human mammary gland adenocarcinoma) | y
CCCOc1c(OC)c(OC)cc2c1-c1ccc(OC)c(=O)cc1[C@@H](NC(C)=O)CC2 [Compound 8] | MCF-7 (Human mammary gland adenocarcinoma) | y
COc1cc2c(c(OCc3cccc(Cl)c3)c1OC)-c1ccc(OC)c(=O)cc1[C@@H](NC(C)=O)CC2 [Compound 12] | MCF-7 (Human mammary gland adenocarcinoma) | n
